In this section, each of the compounds is paired with its reported Activity.
Tested on: Photobacterium leiognathi
ASSAY OVERVIEW: Growth inhibition of Photobacterium leiognathi Sh1 assessed as bio-luminescence at 0.1 mg/ml after 16 to 18 hr by chronic action test relative to control
Type: functional
Parameters: scale not given: the % may be the effect or the level left
State the answer as a number, implicitly in %.

Give its Activity value. Item: `Cc1nn2c(SCC(=O)Nc3ccccc3F)nc3ccccc3c2nc1=O` 196.43

Same question for `O=C(CSc1nc2ccccc2c2nc(=O)c(-c3ccccc3)nn12)NCc1ccccc1F` please. 75

Another compound to look at: `Cc1nn2c(SCC(=O)NCc3ccc(F)cc3)nc3ccccc3c2nc1=O` 123.1

New cases:
Entry `Cc1ccc(-c2nn3c(SCC(=O)Nc4ccc(Cl)cc4)nc4ccccc4c3nc2=O)cc1` has what Activity? 93.75

Do the same for `COc1ccc(-c2nn3c(SCC(=O)Nc4ccccc4F)nc4ccccc4c3nc2=O)cc1` please 96.67

Do the same for `O=C(CSc1nc2ccccc2c2nc(=O)c(-c3ccccc3)nn12)NCCc1ccccc1` please 400

`O=C(CSc1nc2ccccc2c2nc(=O)c(-c3ccccc3)nn12)Nc1ccc(Cl)cc1` , same question. 212.8

Also check `Cc1nn2c(SCC(=O)Nc3cccc(Cl)c3)nc3ccccc3c2nc1=O` 250

How about `Cc1nn2c(SCC(=O)Nc3ccccc3C(F)(F)F)nc3ccccc3c2nc1=O` ? 100

And the next one, `COc1ccc(-c2nn3c(SCC(=O)Nc4ccccc4Cl)nc4ccccc4c3nc2=O)cc1` ? 35.4

This collection of values is drawn from ChEMBL document CHEMBL3045943.
